This section presents substances with their documented Kidney weight values.
# assay_method_text: Tolerability in CD1 mice: body and organ weights (Example 21)
# Assay type: in vivo
# test_context: 50 mg/kg s.c. twice per week for 6 weeks, percentage of the body weight
In the oligonucleotide strings, read from the 5' end, every base follows the letter of its sugar. An asterisk marks phosphorothioate; unmarked linkages are phosphodiester. Other units and linkages are bracketed, terminal groups are in braces. A string of capitals states the bases alone. e = 2'-O-(2-methoxyethyl) (MOE); [5mC] = 5-methylcytosine; d = 2'-deoxy (DNA)
Quote the value and follow it with the unit of measurement.

Some solved entries appear below for comparison.
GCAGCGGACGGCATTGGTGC (antisense; all C 5-methyl, all phosphorothioate, sugars by position not given here; MOE gapmer, 5-10-5) [ISIS 412225, 5-10-5 MOE gapmer]
1.5%
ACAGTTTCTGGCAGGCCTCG (antisense; all C 5-methyl, all phosphorothioate, sugars by position not given here; MOE gapmer, 5-10-5) [ISIS 412223, 5-10-5 MOE gapmer]
1.5%
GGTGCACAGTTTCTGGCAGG (all C 5-methyl, all phosphorothioate, sugars by position not given here; MOE gapmer) [ISIS 413481, 5-10-5 MOE gapmer]
1.5%

Given the substance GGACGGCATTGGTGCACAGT (antisense; all C 5-methyl, all phosphorothioate, sugars by position not given here; MOE gapmer, 5-10-5) [ISIS 413482, 5-10-5 MOE gapmer] , what is its reported Kidney weight?
1.6%

Given the substance ISIS 416856: gapmer of Table 8 (antisense eG*eG*e[5mC]*eA*eT*dT*dG*dG*dT*dG*d[5mC]*dA*d[5mC]*dA*dG*eT*eT*eT*e[5mC]*eT) , what is its reported Kidney weight?
1.4%

Given the substance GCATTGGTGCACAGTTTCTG (antisense; all C 5-methyl, all phosphorothioate, sugars by position not given here; MOE gapmer, 5-10-5) [ISIS 412224, 5-10-5 MOE gapmer] , what is its reported Kidney weight?
1.6%
